- Tested on: normal NK cells expanded with K562-aAPC
- TEST NAME: percent inhibition of viability; higher = more inhibition
- MEASUREMENT PARAMETERS: 72 h; IL-2 2.5 ng/mL; 10 nM
Provide the reported percent inhibition of viability of each item.
Put down the number, then write its unit next to it.

Cc1nc(Nc2ncc(C(=O)Nc3c(C)cccc3Cl)s2)cc(N2CCN(CCO)CC2)n1 [Dasatinib] (max concentration tested 1000 nM)    19.2%
Nc1cc(F)ccc1NC(=O)/C=C/c1cnn(C/C=C/c2ccccc2)c1 [RGFP966] (max concentration tested 10000 nM)    0.23%
CNc1nc(-c2ccc3c(N)n[nH]c3c2)cc(N2C[C@@H](C(=O)NC3CCCCC3)CC[C@H]2C)n1 (max concentration tested 10000 nM)    0.82%
CC[C@H](CO)Nc1nc(NCc2ccccc2)c2ncn(C(C)C)c2n1 [Seliciclib] (max concentration tested 10000 nM)    -1.17%
Cc1ccc(NC(=O)c2ccc(CN3CCN(C)CC3)cc2)cc1Nc1nccc(-c2cccnc2)n1 [Imatinib] (max concentration tested 10000 nM)    -3.28%
CC(C)N(CCCNC(=O)Nc1ccc(C(C)(C)C)cc1)C[C@H]1O[C@@H](n2cc(Br)c3c(N)ncnc32)[C@H](O)[C@@H]1O [SGC0946] (max concentration tested 10000 nM)    -3.94%
O=NN(CCCl)C(=O)NC1CCCCC1 [Lomustine] (max concentration tested 10000 nM)    -4.05%
CO[C@@]12[C@H](COC(N)=O)C3=C(C(=O)C(C)=C(N)C3=O)N1C[C@@H]1N[C@@H]12 [Mitomycin C] (max concentration tested 10000 nM)    -6.89%
Cn1cc(CNCC2CCN(c3ncc(C(=O)NO)cn3)CC2)c2ccccc21 [Quisinostat] (max concentration tested 1000 nM)    27.3%
CN(C[C@@H]1COCCO1)S(=O)(=O)Nc1ccc2ccc3ncc(-c4cnn(C)c4)cc3c(=O)c2c1 [MK-2461] (max concentration tested 10000 nM)    -3.15%

Dear colleague, could you send me percent inhibition of viability for each of the items below? Thanks.
1. Cc1c(C(=O)Nc2ccc(N3C[C@@H](C)O[C@@H](C)C3)nc2)cccc1-c1ccc(OC(F)(F)F)cc1 [Sonidegib] (max concentration tested 10000 nM)
2. C[C@@H](Oc1cc(-c2cnn(C3CCNCC3)c2)cnc1N)c1c(Cl)ccc(F)c1Cl [Crizotinib] (max concentration tested 1000 nM)
3. S=C(NCc1ccc2c(c1)OCO2)N1CCN(c2ncnc3c2oc2ccccc23)CC1 [Amuvatinib] (max concentration tested 10000 nM)
4. CON(C)C(=O)N1N=C(c2cc(F)ccc2F)S[C@@]1(CCCN)c1ccccc1 [Filanesib] (max concentration tested 1000 nM)
5. COc1cc2nccc(Oc3ccc(NC(=O)C4(C(=O)Nc5ccc(F)cc5)CC4)cc3)c2cc1OC [Cabozantinib] (max concentration tested 1000 nM)
6. Cc1cn(-c2cc(NC(=O)c3ccc(C)c(Nc4nccc(-c5cccnc5)n4)c3)cc(C(F)(F)F)c2)cn1 [Nilotinib] (max concentration tested 10000 nM)
7. CC(C)C[C@H](NC(=O)[C@H](CCc1ccccc1)NC(=O)CN1CCOCC1)C(=O)N[C@@H](Cc1ccccc1)C(=O)N[C@@H](CC(C)C)C(=O)[C@@]1(C)CO1 [Carfilzomib] (max concentration tested 1000 nM)

["-1.33%", "-9.93%", "-1.86%", "56.5%", "1.52%", "-4.37%", "96.8%"]

Dear colleague, could you send me percent inhibition of viability for each of the items below? Thanks.
1. CN[C@@H]1C[C@H]2O[C@@](C)([C@@H]1OC)n1c3ccccc3c3c4c(c5c6ccccc6n2c5c31)C(=O)N[C@H]4O [UCN-01] (max concentration tested 10000 nM)
2. O=c1ncn2nc(Sc3ccc(F)cc3F)ccc2c1-c1c(Cl)cccc1Cl [VX 745] (max concentration tested 10000 nM)

1. 13.9%
2. -6.69%

Dear colleague, could you send me percent inhibition of viability for each of the items below? Thanks.
1. NC(=O)c1cccc2cn(-c3ccc([C@@H]4CCCNC4)cc3)nc12 [Niraparib] (max concentration tested 10000 nM)
2. Nc1cccc2c1C(=O)N(C1CCC(=O)NC1=O)C2=O (stereo not drawn) [Pomalidomide] (max concentration tested 10000 nM)

1. 1.98%
2. -9.91%

Dear colleague, could you send me percent inhibition of viability for each of the items below? Thanks.
1. COc1ccc(-c2ccc3c(N4CCOC[C@@H]4C)nc(N4CCOC[C@@H]4C)nc3n2)cc1CO [AZD8055] (max concentration tested 10000 nM)
2. CN(C)C[C@@H]1CCn2cc(c3ccccc32)C2=C(C(=O)NC2=O)c2cn(c3ccccc23)CCO1 [Ruboxistaurin] (max concentration tested 10000 nM)

19.9%
-2.52%
